Counter-ions that a name gives are not always drawn.
measured.property: melting point

Worked examples, 5 compounds total:
N[C@@H](CCC(=O)O)C(=O)NC[C@@H]1CC(c2ccc(-c3ccc(N4C[C@H](Cn5ccnn5)OC4=O)cc3F)cn2)=NO1 (racemic) :: 215 to 217 °C
CC(C)[C@@H](N)C(=O)NC[C@@H]1CC(c2ccc(-c3ccc(N4C[C@H](Cn5ccnn5)OC4=O)cc3F)cn2)=NO1 (as salt: hydrochloride) :: 130 to 134 °C
O=C(NC[C@@H]1CC(c2ccc(-c3ccc(N4C[C@H](Cn5ccnn5)OC4=O)cc3F)cn2)=NO1)[C@@H]1CCCN1 (as salt: hydrochloride) :: 246 to 249 °C
CCCCNC[C@@H]1CC(c2ccc(-c3ccc(N4C[C@H](Cn5ccnn5)OC4=O)cc3F)cn2)=NO1 :: 230 °C
Br.O=C1O[C@@H](Cn2ccnn2)CN1c1ccc(-c2ccc(C3=NO[C@H](CN4CCOCC4)C3)nc2)c(F)c1 :: > 280 °C (dec.)

# melting point of `CN1CCN(C[C@@H]2CC(c3ccc(-c4ccc(N5C[C@H](Cn6ccnn6)OC5=O)cc4F)cn3)=NO2)CC1` = 218 °C
